Reference source for all entries: ChEMBL document CHEMBL2029327

system: U-937; test: Induction of apoptosis in human U937 cells assessed as […] hydrolysis of chromatin at 10 uM after 24 hrs by agarose gel electrophoretic analysis; assay type: functional, cell-based
Calls of active or inactive are those of the source. The calls are words filed in the database; no cut-off is given here.

compound	Activity
CC(C)[C@@H]1CC[C@@H](C)C[C@H]1O[C@@H]1O[C@H](CO[C@@H]2O[C@H](COC(=O)c3ccc(Br)cc3)[C@@H](OC(=O)c3ccc(Br)cc3)[C@H](O)[C@H]2O)[C@@H](O)[C@H](O)[C@H]1O	Active
CC(C)[C@@H]1CC[C@@H](C)C[C@H]1OC1O[C@H](CO[C@@H]2O[C@H](COC(=O)c3ccc(Br)cc3)[C@@H](OC(=O)c3ccc(Br)cc3)[C@H](O)[C@H]2O)[C@@H](O)[C@H](O)[C@H]1O (single isomer, unassigned)	Active
CC(C)[C@H]1CC[C@H](C)C[C@@H]1O[C@@H]1O[C@H](CO[C@@H]2O[C@H](COC(=O)c3ccc(Br)cc3)[C@@H](OC(=O)c3ccc(Br)cc3)[C@H](O)[C@H]2O)[C@@H](O)[C@H](O)[C@H]1O	Active
CC(C)[C@H]1CC[C@H](C)C[C@@H]1O[C@H]1O[C@H](CO[C@@H]2O[C@H](COC(=O)c3ccc(Br)cc3)[C@@H](OC(=O)c3ccc(Br)cc3)[C@H](O)[C@H]2O)[C@@H](O)[C@H](O)[C@H]1O	Active
